- Tested on: Mycobacterium kansasii
- EXPERIMENT NOTES: Antimycobacterial activity against Mycobacterium kansasii ATCC 12478
- Format: functional
# MIC per entry
Return type: number; implicit unit µg/mL.

MOLECULE: CCCCCCCC(=O)O[C@@H]1[C@H](OC)[C@@H]([C@@H](O[C@H]2OC(C(=O)N[C@H]3CCC[C@@H](C)NC3=O)=C[C@H](O)[C@@H]2O)C(N)=O)O[C@H]1n1ccc(=O)[nH]c1=O
MIC [µg/mL]: 1
//
MOLECULE: CCCCCCCCCC(=O)O[C@@H]1[C@H](OC)[C@@H]([C@@H](O[C@H]2OC(C(=O)Nc3ccccc3)=C[C@H](O)[C@@H]2O)C(N)=O)O[C@H]1n1ccc(=O)[nH]c1=O
MIC [µg/mL]: 2
//
MOLECULE: CCCCCCCCCCCCCCCCC(=O)O[C@@H]1[C@H](OC)[C@@H]([C@@H](O[C@H]2OC(C(=O)N[C@H]3CCC[C@@H](C)NC3=O)=C[C@H](O)[C@@H]2O)C(N)=O)O[C@H]1n1ccc(=O)[nH]c1=O
MIC [µg/mL]: 4
//
MOLECULE: CCCCCCCCCCCC(=O)O[C@@H]1[C@H](OC)[C@@H]([C@@H](O[C@H]2OC(C(=O)N[C@H]3CCC[C@@H](C)NC3=O)=C[C@H](O)[C@@H]2O)C(N)=O)O[C@H]1n1ccc(=O)[nH]c1=O
MIC [µg/mL]: 0.5
//
MOLECULE: CCCCCCCCCCCCCCCCOC(=O)O[C@@H]1[C@H](OC)[C@@H]([C@@H](O[C@H]2OC(C(=O)N[C@H]3CCC[C@@H](C)NC3=O)=C[C@H](O)[C@@H]2O)C(N)=O)O[C@H]1n1ccc(=O)[nH]c1=O
MIC [µg/mL]: 8
//
MOLECULE: CO[C@H]1[C@@H](O)[C@H](n2ccc(=O)[nH]c2=O)O[C@@H]1[C@@H](O[C@H]1OC(C(=O)N[C@H]2CCCCNC2=O)=C[C@H](O)[C@@H]1O)C(N)=O [CAPURAMYCIN]
MIC [µg/mL]: 8
//
MOLECULE: CCCCCC(=O)O[C@@H]1[C@H](OC)[C@@H]([C@@H](O[C@H]2OC(C(=O)N[C@H]3CCC[C@@H](C)NC3=O)=C[C@H](O)[C@@H]2O)C(N)=O)O[C@H]1n1ccc(=O)[nH]c1=O
MIC [µg/mL]: 2
//
MOLECULE: CCCCCCCCCCCCCC(=O)O[C@@H]1[C@H](OC)[C@@H]([C@@H](O[C@H]2OC(C(=O)N[C@H]3CCCCNC3=O)=C[C@H](O)[C@@H]2O)C(N)=O)O[C@H]1n1ccc(=O)[nH]c1=O
MIC [µg/mL]: 4
//
MOLECULE: CCCCCCCOC(=O)O[C@@H]1[C@H](OC)[C@@H]([C@@H](O[C@H]2OC(C(=O)N[C@H]3CCC[C@@H](C)NC3=O)=C[C@H](O)[C@@H]2O)C(N)=O)O[C@H]1n1ccc(=O)[nH]c1=O
MIC [µg/mL]: 2
//
MOLECULE: CCCCCCCCCCCC(=O)O[C@@H]1[C@H](OC)[C@@H]([C@@H](O[C@H]2OC(C(=O)N[C@H]3CCCCNC3=O)=C[C@H](O)[C@@H]2O)C(N)=O)O[C@H]1n1ccc(=O)[nH]c1=O
MIC [µg/mL]: 0.125

Read off the recorded MIC for `CO[C@H]1[C@@H](O)[C@H](n2ccc(=O)[nH]c2=O)O[C@@H]1[C@@H](O[C@H]1OC(C(=O)N[C@H]2CCC[C@@H](C)NC2=O)=C[C@H](O)[C@@H]1O)C(N)=O`
16

Look up and report measured MIC for this entry: `CCCCCCCO[C@@H]1[C@H](OC)[C@@H]([C@@H](O[C@H]2OC(C(=O)N[C@H]3CCC[C@@H](C)NC3=O)=C[C@H](O)[C@@H]2O)C(N)=O)O[C@H]1n1ccc(=O)[nH]c1=O`
32

Name the recorded MIC of the molecule listed here: `CCCCCCCCOC(=O)O[C@@H]1[C@H](OC)[C@@H]([C@@H](O[C@H]2OC(C(=O)N[C@H]3CCC[C@@H](C)NC3=O)=C[C@H](O)[C@@H]2O)C(N)=O)O[C@H]1n1ccc(=O)[nH]c1=O`
2

Tell me its MIC given NNC(=O)c1ccncc1 [ISONIAZID] as the entry.
2
